Data provenance is patent US5773424A.

# target: T. gondii adenosine kinase (Toxoplasma gondii, UniProt Q9TVW2)
# Sequence (Q9TVW2 whole entry): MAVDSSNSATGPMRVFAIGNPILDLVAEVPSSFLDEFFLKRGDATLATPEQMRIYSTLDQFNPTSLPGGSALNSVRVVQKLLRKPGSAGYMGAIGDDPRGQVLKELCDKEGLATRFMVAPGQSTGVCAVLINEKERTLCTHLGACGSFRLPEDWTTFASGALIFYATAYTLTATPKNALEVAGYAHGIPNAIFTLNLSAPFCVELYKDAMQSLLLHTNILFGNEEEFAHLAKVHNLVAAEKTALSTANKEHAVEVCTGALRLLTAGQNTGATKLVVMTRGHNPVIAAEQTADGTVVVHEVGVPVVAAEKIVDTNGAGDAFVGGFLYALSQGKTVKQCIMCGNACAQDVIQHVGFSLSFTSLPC
# procedure_text: biochemical
pKi: −log10 of the molar value.
Response key: T means pKi >= 3; F means pKi < 3.

>>> assigned_category("Cn1cnc2c(ncn2[C@H]2C[C@H](O)[C@@H](CO)O2)c1=N")
"F"
>>> assigned_category("Nc1ncnc2c([C@@H]3O[C@H](CO)[C@@H](O)[C@H]3O)c[nH]c12")
"F"
>>> assigned_category("O=c1[nH]cnc2c([C@@H]3O[C@H](CO)[C@@H](O)[C@H]3O)n[nH]c12")
"F"
>>> assigned_category("CSC[C@H]1O[C@@H](n2cnc3c(N)ncnc32)[C@H](O)[C@@H]1O")
"T"
>>> assigned_category("NNc1c(C(N)=O)c2c(N)ncnc2n1[C@@H]1O[C@H](CO)[C@@H](O)[C@H]1O")
"T"
>>> assigned_category("Cn1cnc2c(ncn2[C@@H]2O[C@H](CO)[C@@H](O)[C@H]2O)c1=N")
"T"

---

# target: T. gondii adenosine kinase (Toxoplasma gondii, UniProt Q9TVW2)
# procedure_text: biochemical
pKi: −log10 of the molar value.
Assign class by pKi: not lower than 3 means true (1); lower than 3 means false (0).

>>> assigned_category("CCSc1ncnc2c1ncn2[C@@H]1O[C@H](CO)[C@@H](O)[C@H]1O")
"true (1)"
>>> assigned_category("OC[C@H]1O[C@@H](n2cc(Br)c3c(NO)ncnc32)[C@H](O)[C@@H]1O [Compound 70, N^6 -Hydroxy-7-bromo-7-deazaadenosine]")
"true (1)"
>>> assigned_category("CC(C)CC[C@H]1O[C@@H](n2cnc3c(N)ncnc32)[C@H](O)[C@@H]1O")
"true (1)"
>>> assigned_category("COc1ccc(C2OC3C(CO)OC(n4cnc5c(N)ncnc54)C3O2)cc1 (stereo not shown)")
"false (0)"
>>> assigned_category("Nc1ncnc2c1ncn2[C@@H]1O[C@H](CO)[C@@H](O)[C@H]1O")
"true (1)"
>>> assigned_category("COc1ccc(C(=O)Nc2ncnc3c2ncn3[C@@H]2O[C@H](CO)[C@@H](O)[C@H]2O)cc1")
"true (1)"
>>> assigned_category("Nc1ncnc2c1ncn2[C@H]1CC[C@@H](CO)O1")
"false (0)"

---

# target: T. gondii adenosine kinase (Toxoplasma gondii, UniProt Q9TVW2)
# procedure_text: biochemical
molecules and their reported Ki
property: Ki (µM)

>>> val("Nc1nc(Cl)c2ncn([C@@H]3O[C@H](CO)[C@@H](O)[C@H]3O)c2n1 [Compound 63]")
1800
>>> val("O=C(Nc1ncnc2c1ncn2[C@@H]1O[C@H](CO)[C@@H](O)[C@H]1O)c1ccccc1 [Compound 44]")
23
>>> val("OC[C@H]1O[C@@H](n2cnc3c(NCc4ccccc4)ncnc32)[C@H](O)[C@@H]1O [Compound 45]")
100
>>> val("Nc1ncnc2nc[nH]c12 [Compound 115, Adenine]")
6500

---

# target: T. gondii adenosine kinase (Toxoplasma gondii)
# procedure_text: biochemical
# run_conditions: AppKi for inhibition of T. gondii adenosine kinase, 5 μM adenosine; ± range, at least two estimations
property: Ki (µM)

>>> val("Nc1ncnc2c1ccn2[C@@H]1O[C@H](CO)[C@@H](O)[C@H]1O")
340
>>> val("OC[C@H]1O[C@@H](n2cnc3c(=[Se])[nH]cnc32)[C@H](O)[C@@H]1O")
130
>>> val("Nc1ncnc2c1c(Cl)cn2[C@@H]1O[C@H](CO)[C@@H](O)[C@H]1O")
10
>>> val("OC[C@H]1O[C@@H](n2cnc3cncnc32)[C@H](O)[C@@H]1O")
170
>>> val("CNc1ncnc2c1ncn2[C@@H]1O[C@H](CO)[C@@H](O)[C@H]1O")
23
>>> val("O=[N+]([O-])c1ccc(C[Se]c2ncnc3c2ncn3[C@@H]2O[C@H](CO)[C@@H](O)[C@H]2O)cc1")
84
>>> val("Nc1ncnc2c1ncn2[C@@H]1O[C@H](COS(=O)(=O)O)[C@@H](O)[C@H]1O")
210
>>> val("OC[C@H]1O[C@@H](n2cnc3c(NC4CCCC4)nc(Cl)nc32)[C@H](O)[C@@H]1O")
390
